Each recorded value in this set is attributed to PubChem BioAssay AID1159580.

# MEASUREMENT DESCRIPTION: chemical genetic growth profiling, strain panel (AID 1159580);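 further: tested at 20 µM; growth read once vehicle control cultures reached saturation at 30 °C; 1 = growth at the plate median or of vehicle wells; lower values mean less growth of the strain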
# CONDITION SET: S. cerevisiae deletion strains, growth OD, locus YLR320W, strain mms22, stronger effect = lower value
Screen size: about 5,500 compounds; about 2,000 (36%) were called active. Inconclusive results (about 18%) are left out. This is one part of the list. Where a SMILES comes first, the peptide text is derived from it. [ ]: non-standard residue; d: D form. Orn = NCCC[CH](N)C(=O)O
OBSERVATION TYPE: normalized growth
Just the number, please, no unit attached.

Value lookup for normalized growth; key = CC(=O)OCC(=O)[C@@]12OC3(CCCC3)O[C@@H]1CC1C3CCC4=CC(=O)C=C[C@]4(C)[C@@]3(F)[C@@H](O)C[C@@]12C (some centres undefined) 1.02

Which normalized growth reading was recorded for the compound NCCNCCNCCN ? 1

Query: normalized growth; subject: CCN(CC)CCNC(=O)c1cc(Cl)c(N)cc1OC 0.962

Which normalized growth reading was recorded for the compound CO[C@@]1(NC(=O)Cc2cccs2)C(=O)N2C(C(=O)O)=C(COC(N)=O)CS[C@@H]21 ? 0.977

Fill in: normalized growth of CN[C@@H]1[C@@H](O[C@H]2O[C@H](CO)[C@@H](N)[C@H](O)[C@H]2O)O[C@H]2C[C@@H](N)[C@H](O[C@H]3[C@H](O)[C@@H](O)[C@H](N)C[C@@H]3N)O[C@@H]2[C@@H]1O is ___ 0.991

For the compound NC[C@H]1O[C@H](O[C@H]2[C@H](O)[C@@H](O[C@H]3O[C@H](CO)[C@@H](O)[C@H](N)[C@H]3O)[C@H](N)C[C@@H]2N)[C@H](N)C[C@@H]1O , what normalized growth is on record? 1

Report normalized growth for CCOc1ccc(C(=O)c2ccc(O)c(O)c2O)cc1 please. 0.88

Need normalized growth of Cc1ccc(N(CC2=NCCN2)c2cccc(O)c2)cc1 , thanks. 0.987

Param item = Cc1onc(-c2ccccc2)c1C(=O)NC1C(=O)N2[C@@H]1SC(C)(C)[C@@H]2C(=O)O (some centres undefined) ; retrieve measured normalized growth. 1.04

Give the measured normalized growth of COc1cccc(OC)c1C(=O)N[C@@H]1C(=O)N2[C@@H]1SC(C)(C)[C@@H]2C(=O)O . 0.986

Item CC1(C)S[C@@H]2[C@H](NC(=O)Cc3ccccc3)C(=O)N2[C@H]1C(=O)O has what recorded normalized growth? 1.04

So what does the record say about normalized growth for Cc1onc(-c2c(Cl)cccc2Cl)c1C(=O)N[C@@H]1C(=O)N2[C@@H]1SC(C)(C)[C@@H]2C(=O)O ? 1.06

What does the record list as normalized growth for CCOc1ccc(C(=O)c2ccc(OC)c(O)c2O)cc1 ? 0.949

If you can, please state the reported normalized growth value of CC(=O)Oc1ccccc1C(=O)O . 0.975

Dear colleague, I am looking for the recorded normalized growth of the following compound: CC[C@H]1CN2CCc3cc(OC)c(OC)cc3C2C[C@@H]1CC1NCCc2cc(OC)c(OC)cc21 (some centres undefined) 0.948

For CC(=O)OCC1=C(C(=O)O)N2C(=O)[C@@H](NC(=O)CCCC(N)C(=O)O)C2SC1 (some centres undefined) , what is its reported normalized growth? 1.01

Item CCc1cccc2c3c([nH]c12)C(CC)(CC(=O)O)OCC3 (centres undefined) has what recorded normalized growth? 1.01

If you can, please state the reported normalized growth value of CCOc1cccc(C(=O)c2ccc(O)c(O)c2O)c1 . 0.806

Field request: normalized growth | item: c1ccc([C@H]2CN3CCSC3=N2)cc1 0.988

I am curious: what normalized growth value has been reported for CC1=CC2C(C(C)C)CCC(C)(O)C2CC1 (centres undefined) ? 0.966

Fill in the blank: the reported normalized growth of NC[C@H]1O[C@H](O[C@H]2C(O[C@@H]3O[C@H](CO)[C@@H](O)[C@H]3O)[C@@H](O)[C@H](N)C[C@@H]2N)[C@H](N)[C@@H](O)[C@@H]1O (some centres undefined) is ____. 0.991

# normalized growth lookup, item COc1cnc(NS(=O)(=O)c2ccc(N)cc2)nc1 0.965

I'd like to know its normalized growth. The compound in question is CC1(C)S[C@@H]2[C@H](NC(=O)[C@H](C(=O)O)c3cccs3)C(=O)N2[C@H]1C(=O)O 1.01

Return reported normalized growth; argument: O=c1oc2c(O)c(O)cc3c(=O)oc4c(O)c(O)cc1c4c23 0.617

normalized growth lookup needed for CC(=O)[C@@]1(O)CCC2C3CCC4=CC(=O)CC[C@]4(C)C3CC[C@@]21C (some centres undefined) , thanks. 0.939

Using the record for Cc1cc(C(C)(C)C)c(O)c(C)c1CC1=NCCN1 , report its normalized growth. 1.02

Recorded normalized growth of COc1c2c(cc3c1OCO3)C13C=C[C@H](OC)CC1N(C2)CC3O (some centres undefined) , please. 1.02

Find the recorded normalized growth belonging to COC(=O)[C@]1(C)CC[C@]2(C)CC[C@]3(C)C4=CC=C5C(=CC(=O)C(O)=C5C)[C@]4(C)CC[C@@]3(C)[C@@H]2C1 and report it. 0.495

Could you tell me which normalized growth is on file for CC(C)CC1NC(=O)C(CCCN)NC(=O)C(C(C)C)NC(=O)C2CCCN2C(=O)C(Cc2ccccc2)NC(=O)C(CC(C)C)NC(=O)C(CCCN)NC(=O)C(C(C)C)NC(=O)C2CCCN2C(=O)C(Cc2ccccc2)NC1=O (centres undefined) (cyclo(FPV[Orn]LFPV[Orn]L); configuration not given here) ? 1.02

// normalized growth lookup, key: CC[C@H]1OC(=O)[C@H](C)[C@@H](O[C@H]2C[C@@](C)(OC)[C@@H](O)[C@H](C)O2)[C@H](C)[C@@H](O[C@@H]2O[C@H](C)C[C@H](N(C)C)[C@H]2O)[C@](C)(O)C[C@@H](C)[C@@H]2N[C@@H](COCCOC)O[C@H]([C@H]2C)[C@]1(C)O 0.991

# query: normalized growth of entry COc1cc(NS(=O)(=O)c2ccc(N)cc2)ncn1 0.979

Fill in: normalized growth of CC(=O)Oc1cc2c(c(C)c1OC(C)=O)CC1OC13C2(C)CCC1(C)C2CC(C)(C(=O)O)CCC2(C)CCC13C (centres undefined) is ___ 1.03

Look at this compound and give its reported normalized growth. CC1=C(O)C(=O)C=C2C1=CC=C1[C@@]2(C)CC[C@@]2(C)[C@@H]3C[C@](C)(C(=O)O)CC[C@]3(C)CC[C@]12C 0.256

Please look up its normalized growth: CC1(C)C=Cc2cc3ccc(=O)oc3cc2O1 0.891
